- Test system: Tov-21-G
- PROTOCOL_DESCRIPTION: Primary qHTS to identify gynecologic anti-cancer compounds using libraries of approved drugs and bioactive compounds (AID 1345084); also: % is scaled to controls: 0 for no effect and ±100 for the full control effect; nearly all actives have a fitted effect of over 55% in size
- DETAILS: Gynecologic cancer cell panel viability, ATPlite luminescence, 48 h; series mostly up to 57.5 µM
Inconclusive results are not listed. Activity calls are given as the source filed them. Calls follow the shape of the dose curve; as a rule, active = well fitted cell-killing curve with a large enough effect; inconclusive = small, poorly fitted or top-dose-only effect, or effect the other way; inactive = flat fitted curve, though single readings scatter. Where a SMILES comes first, the peptide text is derived from it. [ ]: non-standard residue; d: D form. PhLac = O=C(O)[CH](O)Cc1ccccc1; NMeV = CN[CH](C(=O)O)C(C)C
READOUT: activity change, negative = cytotoxicity

Here is how some molecules turned out for activity change, negative = cytotoxicity.
Missing value: activity change, negative = cytotoxicity, Tov-21-G, entry C[C@@H]1O[C@@H](O[C@H]2[C@H](O)[C@@H](O)[C@H](OC[C@H]3O[C@@H](OC(=O)[C@]45CCC(C)(C)C[C@H]4C4=CCC6[C@@]7(C)C[C@H](O)[C@H](O[C@@H]8O[C@H](CO)[C@@H](O)[C@H](O)[C@H]8O)[C@@](C)(C(=O)O)C7CC[C@@]6(C)[C@]4(C)CC5)[C@H](O[C@@H]4O[C@H](CO)[C@@H](O)[C@H](O)[C@H]4O)[C@@H](O)[C@@H]3O)O[C@@H]2CO)[C@H](O)[C@H](O)[C@H]1O (stereo not given in full) . Fill in?
6.93% [at 6.55 µM] (inactive)

Repeat for the following molecule: COC(=O)C1=CO[C@@H](O[C@@H]2O[C@H](CO)[C@@H](O)[C@H](O)[C@H]2O)[C@@H]2[C@@](C)(O)[C@@H](O)C[C@]12O
inactive

Quick one: OC[C@H]1O[C@@H](OCCc2ccc(O)cc2)[C@H](O)[C@@H](O)[C@@H]1O
inactive

Same question for C/C(=C\CCC(C)(O)c1ccc(C)cc1)C(=O)O (stereo not given) please.
inactive

Kindly consider the entry below.
Query the reported activity change, negative = cytotoxicity for Tov-21-G; item: CC(C)C(C(=O)N1CCCC1C(=O)O)N(C)C(=O)C(O)Cc1ccccc1 (stereo not given) (H-[PhLac]-[NMeV]-Pro-OH; configuration not given here)
inactive

###

- Test system: SC27B
- PROTOCOL_DESCRIPTION: qHTS profiling for inhibitors of Plasmodium falciparum proliferation (AID 504749); also: nearly all actives have a fitted effect of over 60% in size
- DETAILS: P. falciparum in erythrocytes, SYBR Green DNA, 72 h; series mostly up to 28.7 µM
Records with an inconclusive call do not appear. Active and inactive are the calls of the source. The call rests on the fitted dose curve; in most records, active means well fitted inhibition curve with a large enough effect; inconclusive means small, poorly fitted or top-dose-only effect; inactive means flat fitted curve, though single readings scatter.
# valid calls are t = active, f = inactive; nothing else

Name the outcome recorded for CC(C)(C)C(=O)OCOC(=O)[C@@H]1N2C(=O)[C@@H](N=CN3CCCCCC3)[C@H]2SC1(C)C in the assay.
f

Check CCCCCCCCCCCCCCCC(=O)OCC(COC(=O)CCCCCCCCCCCCCCC)OC(=O)CCCCCCCCCCCCCCC too.
f

Next record, please: CC(O)CO (stereo not drawn)
f

Then IC(I)I ?
f

Thanks! And CCCCC(C)(O)C/C=C/[C@H]1[C@H](O)CC(=O)[C@@H]1CCCCCCC(=O)OC (stereo partly drawn) ?
f

Next record, please: CC(=O)Oc1c(C)cc(OCC(O)CNC(C)C)c(C)c1C (stereo not drawn)
f

Then what about the compound CCCCCCCC(=O)O ?
f

How about this compound: CCCCCCCC/C=C\CCCCCCCC(=O)O
f

And what about the compound CO[C@H](C(=O)[C@@H](O)[C@@H](C)O)C1Cc2cc3cc(O[C@H]4C[C@@H](O[C@H]5C[C@@H](O)[C@H](O)[C@@H](C)O5)[C@@H](O)[C@@H](C)O4)c(C)c(O)c3c(O)c2C(=O)[C@H]1O[C@H]1C[C@@H](O[C@H]2C[C@@H](O[C@H]3C[C@](C)(O)[C@H](O)[C@@H](C)O3)[C@H](O)[C@@H](C)O2)[C@H](O)[C@@H](C)O1 (stereo partly drawn) ?
t

Item: Nc1ncnc2c1ncn2[C@@H]1O[C@H](COP(=O)(O)OP(=O)(O)OP(=O)(O)O)[C@@H](O)[C@H]1O
f

Field entry: Nc1c(N=Nc2ccc(-c3ccc(N=Nc4cc(S(=O)(=O)O)c5ccccc5c4N)cc3)cc2)cc(S(=O)(=O)O)c2ccccc12
f

Same question, CC(Cc1ccc(O)c(O)c1)C(C)Cc1ccc(O)c(O)c1 (stereo not drawn) this time
f

Again, but for CCOc1ccc2c(c1)C(C)=CC(C)(C)N2
f

Next up: COC(C(=O)C(O)C(C)O)C1Cc2cc3cc(OC4CC(OC5CC(O)C(O)C(C)O5)C(O)C(C)O4)c(C)c(O)c3c(O)c2C(=O)C1OC1CC(OC2CC(OC3CC(C)(O)C(O)C(C)O3)C(O)C(C)O2)C(O)C(C)O1 (stereo not drawn)
t

Next compound: CCN(CC)CCOc1ccc(-c2nc3cc(Cl)ccc3s2)cc1
f

One more compound: Cc1cn([C@H]2C[C@H](O)[C@@H](CO)O2)c(=O)[nH]c1=O
f

One more compound: CN=C(NC#N)Nc1ccc(C2=NNC(=O)C[C@@H]2C)cc1
f

Subsequent entry: CCCC(=O)Nc1ncnc2c1ncn2C1OC2COP(=O)(O)OC2C1OC(=O)CCC (stereo not drawn)
f

Next: CO[C@H]1C[C@@H]2CC[C@@H](C)[C@@](O)(O2)C(=O)C(=O)N2CCCC[C@H]2C(=O)O[C@H]([C@H](C)C[C@@H]2CC[C@@H](OCCO)[C@H](OC)C2)CC(=O)[C@H](C)/C=C(\C)[C@@H](O)[C@@H](OC)C(=O)[C@H](C)C[C@H](C)/C=C/C=C/C=C/1C
t

Try CCN(CC)Cc1cc(Nc2ccnc3cc(Cl)ccc23)ccc1O next.
t

How about this compound: COC(F)(F)C(Cl)Cl
f

Same question, CC1(C)S[C@@H]2[C@H](NC(=O)[C@@H](NC(=O)N3CCNC3=O)c3ccccc3)C(=O)N2[C@H]1C(=O)O this time
f

Same read-out for CCOC(=O)C1=CC2(CC)CCCN3CCc4c(n1c1ccccc41)C32 (stereo not drawn) ?
t

Query CC1=CCC(C(C)(C)O)CC1 (stereo not drawn) next
f

Would you kindly repeat that for C[C@]12CCC(=O)C=C1CC[C@@H]1[C@@H]2[C@@H](O)C[C@@]2(C)[C@H]1CC[C@]2(O)C(=O)COP(=O)(O)O ?
f

Next: Cc1c(C)c2c(c(C)c1O)CC[C@@](C)(CCC[C@H](C)CCC[C@H](C)CCCC(C)C)O2
f

What about this compound? Cc1cc(C(=O)NNCc2ccccc2)no1
f

Again, but for CCCC(=O)O[C@]1(C(=O)CCl)[C@H](C)C[C@@H]2[C@H]3CCC4=CC(=O)C=C[C@]4(C)[C@@]3(F)C(=O)C[C@@]21C
t

###

- Tested on: Es-2
- PROTOCOL_DESCRIPTION: Primary qHTS to identify gynecologic anti-cancer compounds using libraries of approved drugs and bioactive compounds (AID 1345084); also: % is scaled to controls: 0 for no effect and ±100 for the full control effect; nearly all actives have a fitted effect of over 55% in size
- DETAILS: Gynecologic cancer cell panel viability, ATPlite luminescence, 48 h; series mostly up to 57.5 µM
Results filed as inconclusive are left out. Activity calls are given as the source filed them. Calls follow the shape of the dose curve; as a rule, active = well fitted cell-killing curve with a large enough effect; inconclusive = small, poorly fitted or top-dose-only effect, or effect the other way; inactive = flat fitted curve, though single readings scatter.
READOUT: activity change, negative = cytotoxicity

I have this compound here, CC1=C2CC3OC3(C)CCC3OC3(C)CC2OC1=O (stereo not drawn) , and I need its recorded activity change, negative = cytotoxicity.
inactive

Would you kindly repeat that for N#Cc1ccc2[nH]c(O)c(-c3ccc(CN4CCOCC4)cn3)c2c1 ?
inactive

Same for C/C=C/C1=CC2=CC(=O)C(C)(O)C(OC(=O)c3c(C)cc(O)cc3O)C2CO1 (stereo not drawn)
inactive

And what about the compound C=CC(C)(O)CC/C=C(/C)C(=O)OC1C(OC2OCC(OC3OC(CO)C(O)C(O)C3O)C(OC3OCC(O)C(OC4OC(C)C(O)C(O)C4O)C3O)C2O)COC(OC(=O)C23CCC(C)(C)CC2C2=CCC4C5(C)CCC(OC6OC(CO)C(OC7OC(CO)C(O)C(OC8OCC(O)C(O)C8O)C7O)C(O)C6O)C(C)(C)C5CCC4(C)C2(C)CC3O)C1O (stereo not drawn) ?
-0.338% [at 6.55 µM] (inactive)

Further cases:
Look up activity change, negative = cytotoxicity: C=CC1(C)C=C2C(=O)CC3C(C)(C)CCCC3(C(=O)O)C2(O)CC1 (stereo not drawn)
inactive

// same read-out, input: C=C1CC23CCC4[C@@](C)(CCC[C@@]4(C)C(=O)O)C2CCC1C3 (stereo partly drawn)
inactive

What do you have for CCOC(=O)c1c(C)nn(-c2cccc([N+](=O)[O-])c2)c1C ?
inactive

Now the compound C=C(C)[C@H]1C[C@@H](O)C(=C)CC[C@@H](O)C(=C)[C@@H](O)C1
inactive

###

- SYSTEM_NAME: DNA dC->dU-editing enzyme APOBEC-3G (Homo sapiens)
- PROTOCOL_DESCRIPTION: qHTS for inhibitors of Vif-A3G interactions: Validation (AID 588379); also: 0% is about no effect
- DETAILS: Vif-A3G protein interaction assay; series mostly up to 46.1 µM
Activity calls are given as the source filed them. The call rests on the fitted dose curve; in most records, active means well fitted inhibition curve with a large enough effect; inconclusive means small, poorly fitted or top-dose-only effect; inactive means flat fitted curve, though single readings scatter. Peptide text beside a SMILES is read from it.
READOUT: outcome

These solved cases illustrate the format of a correct answer.
// lookup outcome for COC(=O)[C@H]1[C@H]2CC3c4[nH]c5ccccc5c4CCN3C[C@@H]2CC[C@@H]1O (stereo partly drawn)
inactive

Param item: O=c1ccn([C@@H]2O[C@H](CO)[C@@H](O)[C@H]2O)c(=O)[nH]1
inactive

Param item: CC(=O)N[C@@H](CC(=O)O)C(=O)N[C@@H](CCC(=O)O)C(=O)O (Ac-Asp-Glu-OH)
inactive

For O=C(O)CC/C=C\CC[C@H]1[C@@H](N2CCCCC2)[C@@H](O)C[C@@H]1OCc1ccc(-c2ccccc2)cc1 then?
inactive

Then this compound: COC(=O)C1=C(C)NC(C)=C(C(=O)OCCCN2CCC(c3ccccc3)(c3ccccc3)CC2)[C@H]1c1cccc([N+](=O)[O-])c1
inactive

Next:
Any idea what outcome was measured for CCCC(=O)Nc1ncnc2c1ncn2[C@@H]1O[C@@H]2COP(=O)(O)O[C@H]2[C@H]1OC(=O)CCC ?
inactive

Next: OCc1ccccc1O[C@@H]1O[C@H](CO)[C@@H](O)[C@H](O)[C@H]1O
inactive

Can you handle Cc1cn([C@H]2C[C@H](O)[C@@H](CO)O2)c(=O)[nH]c1=O next?
inactive
